# Assay overview: in vivo
# Experimental setup: female, mouse, po, 20 mg/kg, AUC 0-12
Assay endpoint: AUC(0-t) (ng·h/mL)
Your answer is read as ng·h/mL, so omit the unit and give the number.

For the compound Cc1cc(-c2ccccc2)c(C(=O)C(=O)Nc2ccc(N3CCN(c4ncc(F)cn4)CC3)cc2)n1C [olorofim] , what AUC(0-t) is on record?
26600

* * *

# Assay overview: in vivo
# Experimental setup: male, mouse, po, 10 mg/kg, AUC 0-12
Assay endpoint: AUC(0-t) (ng·h/mL)
Your answer is read as ng·h/mL, so omit the unit and give the number.

For the compound Cc1cc(-c2ccccc2)c(C(=O)C(=O)Nc2ccc(N3CCN(c4ncc(F)cn4)CC3)cc2)n1C , what AUC(0-t) is on record?
8700

* * *

# Assay overview: in vivo
# Experimental setup: male, mouse, po, 30 mg/kg, Tmax
Assay endpoint: Tmax (h)
Your answer is read as h, so omit the unit and give the number.

For the compound Cc1cc(-c2ccccc2)c(C(=O)C(=O)Nc2ccc(N3CCN(c4ncc(F)cn4)CC3)cc2)n1C , what Tmax is on record?
1

* * *

# Assay overview: in vivo
# Experimental setup: female, mouse, po, 30 mg/kg, Tmax
Assay endpoint: Tmax (h)
Your answer is read as h, so omit the unit and give the number.

For the molecule Cc1cc(-c2ccccc2)c(C(=O)C(=O)Nc2ccc(N3CCN(c4ncc(F)cn4)CC3)cc2)n1C [olorofim] , what Tmax is on record?
1

* * *

# Assay overview: in vivo
# Experimental setup: female, mouse, po, 30 mg/kg, AUC 0-12
Assay endpoint: AUC(0-t) (ng·h/mL)
Your answer is read as ng·h/mL, so omit the unit and give the number.

For the molecule Cc1cc(-c2ccccc2)c(C(=O)C(=O)Nc2ccc(N3CCN(c4ncc(F)cn4)CC3)cc2)n1C , what AUC(0-t) is on record?
30800

* * *

# Assay overview: in vivo
# Experimental setup: mouse
Assay endpoint: half-life

For the molecule Cc1cc(-c2ccccc2)c(C(=O)C(=O)Nc2ccc(N3CCN(c4ncc(F)cn4)CC3)cc2)n1C , what half-life is on record?
~2 h

* * *

# Assay overview: in vivo
# Experimental setup: male, mouse, po, 30 mg/kg, AUC 0-12
Assay endpoint: AUC(0-t) (ng·h/mL)
Your answer is read as ng·h/mL, so omit the unit and give the number.

For the molecule Cc1cc(-c2ccccc2)c(C(=O)C(=O)Nc2ccc(N3CCN(c4ncc(F)cn4)CC3)cc2)n1C , what AUC(0-t) is on record?
27700

* * *

# Assay overview: in vivo
# Experimental setup: female, mouse, po, 30 mg/kg, Cmax
Assay endpoint: Cmax (ng/mL)
Your answer is read as ng/mL, so omit the unit and give the number.

For the compound Cc1cc(-c2ccccc2)c(C(=O)C(=O)Nc2ccc(N3CCN(c4ncc(F)cn4)CC3)cc2)n1C , what Cmax is on record?
4110

* * *

# Assay overview: in vivo
# Experimental setup: female, mouse, po, 20 mg/kg, Cmax
Assay endpoint: Cmax (ng/mL)
Your answer is read as ng/mL, so omit the unit and give the number.

For the compound Cc1cc(-c2ccccc2)c(C(=O)C(=O)Nc2ccc(N3CCN(c4ncc(F)cn4)CC3)cc2)n1C [olorofim] , what Cmax is on record?
4610

* * *

# Assay overview: in vivo
# Experimental setup: male, mouse, po, 30 mg/kg, Cmax
Assay endpoint: Cmax (ng/mL)
Your answer is read as ng/mL, so omit the unit and give the number.

For the molecule Cc1cc(-c2ccccc2)c(C(=O)C(=O)Nc2ccc(N3CCN(c4ncc(F)cn4)CC3)cc2)n1C , what Cmax is on record?
4110
